The following molecules are shown together with reported pIC50 values.
TARGET OF ASSAY: Cyclin-dependent kinase 2/cyclin E (Homo sapiens)
METHOD NOTES: Inhibitory concentration against cyclin dependent kinase-2 (CDK2)/Cyclin E
pIC50: −log10 of the molar value.
QUANTITY MEASURED: pIC50

{"MOLECULE": "CCCCc1ccc(CNc2nc(N(CCO)CCO)nc3c2ncn3C(C)C)cc1", "READING QUALIFIER": "=", "QUANTITATIVE READOUT": 5.70}
{"MOLECULE": "COc1ccc(CNc2nc(N(CCO)CCO)nc3c2ncn3C2CCCC2)cc1", "READING QUALIFIER": "=", "QUANTITATIVE READOUT": 5.70}
{"MOLECULE": "CC(C)n1cnc2c(NCc3ccc(-c4ccccc4)cc3)nc(N(CCO)CCO)nc21", "READING QUALIFIER": "=", "QUANTITATIVE READOUT": 6.00}
{"MOLECULE": "CC(C)n1cnc2c(Nc3ccccc3)nc(N(CCO)CCO)nc21", "READING QUALIFIER": "=", "QUANTITATIVE READOUT": 5.70}
{"MOLECULE": "COc1ccc(CNc2nc(NCCO)nc3c2ncn3C(C)C)cc1", "READING QUALIFIER": "=", "QUANTITATIVE READOUT": 5.82}
{"MOLECULE": "COc1ccc(CNc2nc(NCCc3c[nH]c4ccccc34)nc3c2ncn3C(C)C)cc1", "READING QUALIFIER": "=", "QUANTITATIVE READOUT": 5.70}
{"MOLECULE": "CC(C)n1cnc2c(Nc3ccc(Br)cc3)nc(N(CCO)CCO)nc21", "READING QUALIFIER": "=", "QUANTITATIVE READOUT": 6.00}
{"MOLECULE": "CC(C)n1cnc2c(NCc3ccc(-c4ccccc4)cc3)nc(NCC(O)CO)nc21 (stereo not given)", "READING QUALIFIER": "=", "QUANTITATIVE READOUT": 6.22}
{"MOLECULE": "CC(C)n1cnc2c(N(C)C3CC3)nc(N(CCO)CCO)nc21", "READING QUALIFIER": "=", "QUANTITATIVE READOUT": 5.70}
{"MOLECULE": "CC(C)n1cnc2c(Nc3cccc4cccnc34)nc(N(CCO)CCO)nc21", "READING QUALIFIER": "<", "QUANTITATIVE READOUT": 5.30}
{"MOLECULE": "CC(C)n1cnc2c(NCc3ccc4c(c3)OCO4)nc(N(CCO)CCO)nc21", "READING QUALIFIER": "=", "QUANTITATIVE READOUT": 6.10}
{"MOLECULE": "COc1ccc(CNc2nc(N(C)CC(O)c3ccccc3)nc3c2ncn3C(C)C)cc1 (stereo not given)", "READING QUALIFIER": "<", "QUANTITATIVE READOUT": 5.30}
{"MOLECULE": "COc1ccc(CNc2nc(NCCN)nc3c2ncn3C(C)C)cc1", "READING QUALIFIER": "<", "QUANTITATIVE READOUT": 5.30}
{"MOLECULE": "COc1ccc(CNc2nc(N3CCCC3)nc3c2ncn3C(C)C)cc1", "READING QUALIFIER": "=", "QUANTITATIVE READOUT": 5.30}
{"MOLECULE": "COc1ccc(CNc2nc(NC(O)CN)nc3c2ncn3C(C)C)cc1 (stereo not given)", "READING QUALIFIER": "=", "QUANTITATIVE READOUT": 6.00}

Values from ChEMBL document CHEMBL1129208
